Reference source: patent US4581366A

- SYSTEM_UNDER_TEST: aldose reductase (Bos taurus)
- Construct: partially purified aldose reductase is isolated in known manner from bovine lenses
- METHOD_NOTES: in vitro inhibition of partially purified aldose reductase from bovine lenses (reduction of glucose to sorbitol, spectrophotometric)
- TEST_SETTINGS: read-out: IC50 (concentration necessary to inhibit to the extent of 50% the enzyme's ability to reduce glucose to sorbitol)
- Description: Thus, partially purified aldose reductase is isolated in known manner from bovine lenses. The percentage inhibition of this enzyme's ability in vitro to reduce aldoses to polyhydric alcohols, and particularly to reduce glucose to sorbitol, caused by a test compound is then determined using standard spectrophotometric methods. […]
Listing: IC50 of selected compounds

COMPOUND: O=C1NC(=O)C2(N1)C(=O)N(Cc1ccc(Br)cc1F)c1c(Cl)cccc12 (racemic) [compound of formula I, racemic form]
IC50: ~24 nM

// below: IC50 requested for another compound
Q: Consider the compound O=C1NC(=O)C2(N1)C(=O)N(Cc1ccc(Br)cc1F)c1c(Cl)cccc12 (single isomer, unassigned; (+)) tested on aldose reductase (Bos taurus); state its IC50.
Ans: ~9.8 nM
